Kindly supply the reported kon values for the records listed here.
ASSAYED SYSTEM: T1, His-tagged human HVEM (human, UniProt Q92956 39-202, limits assumed)
T1 construct: Analyte of the BLI assay, 200 nM in PBS; not shown: His tag
T1 sequence (looked up): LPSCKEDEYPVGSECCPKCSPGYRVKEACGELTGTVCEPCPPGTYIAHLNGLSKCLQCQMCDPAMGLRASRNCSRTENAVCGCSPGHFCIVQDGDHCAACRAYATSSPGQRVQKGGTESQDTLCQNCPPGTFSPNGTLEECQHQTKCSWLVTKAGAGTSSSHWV
ASSAY NAME: BLI OctetRed96, mAb captured, 200 nM His-HVEM
The answer consists of two parts: a number and, after it, its unit.

QUERY: Suppose we examine the binder Ab_035 (H5S15-9A10A) (antibody, V domains shown, also called Ab_35) VH: DVQLVESGGGLVQPGGSRKLSCAASGFTFSDFGMHWVRQAPEKGLEWVAHISSGSSTIYYADTVKGRFTISRDNPKNTLFLQMTSLRSEDTAMYYCARGAYGNFAWFPYWGQGTLVTVSA VL: DVVMTQTPLSLPVSLGDQASISCRSSQSLVHTNGNTYLHWYLQKPGQSPRLLIYKVSNRFSGVPDRFSGGGSGTDFTLKISRVEAEDLGVYFCSQSTHVPTFGSGTKLEIK ; what kon value has been reported?
RESULT: 357000 M⁻¹ s⁻¹

QUERY: Suppose we examine the binder Ab_051 (H5S19-4A6A) (antibody, V domains shown, also called Ab_51) VH: QVQLKESGPGLVAPSQSLSITCTVSGFSLTGYGVNWVRQPPGKGLEWLGMIWGDGNTDYNSALKSRLSISKDNSKSQVFLKMNSLQTDDTARYYCARSYGSYWGQGTLVTVSA VL: QIVLTQSPAIMSASPGEKVTMTCSASSSVSYMYWYQQKPGSSPRLLIYDTSNLASGVPVRFSGSGSGTSYSLTISRMEAEDAATYYCQQWSSYPFTFGSGTKLEIK ; what kon value has been reported?
RESULT: 496000 M⁻¹ s⁻¹

QUERY: Suppose we examine the binder Ab_074 (H5S20-52A21A) (antibody, V domains shown, also called Ab_74) VH: EVQLQQSGAELVKPGASVKLSCTASGFNIKDTYIHWLNQRPEQGLEWIGRIDPANGKTKFAPKFQDKATITADTSSNTAYLQLSSLTSEDTAVYYCAGYGNSPWFAYWGQGTLVTVSA VL: DVLMTQTPLSLPVSLGDQASISCRSSQSIVHSNGNTYLEWYLQKPGQSPKLLIYKVSNRVSGVPDRFSGSGSGTDFTLKISRVEAEDLGVYYCFQGSHVPLTFGAGTKLELK ; what kon value has been reported?
RESULT: 565000 M⁻¹ s⁻¹
